Taken from ChEMBL document CHEMBL5665443.

# tested.on: G/T mismatch-specific thymine DNA glycosylase (Homo sapiens)
# condition: Compound Concentration 10.0 uM, Hit No
# Description: Inhibition of TDG by quantifying inhibition of TDG-mediated cleavage and dissociation of quenched duplex DNA oligonucleotides, measured as fluorescence at 594 nm. To generate a functional strand incision and increase turn-over this assay is coupled to APE1.
measurement.type: inhibition
Answer shape: numeric part, then the unit.

Kindly indicate its recorded inhibition. Item: CC1(C)C(=O)C(C)(C)c2cc(C(=O)Nc3ccc(C(=O)O)cc3)ccc21
47.5%

Kindly indicate its recorded inhibition. Item: N#CN1CC[C@@H](C(=O)Nc2nc3c(s2)CN(C(=O)CN=[N+]=[N-])CC3)C1
50.9%

Kindly indicate its recorded inhibition. Item: Cc1c(P(=S)(c2ccccc2)c2ccccc2)n2ccccc2[n+]1C/C=C/c1ccccc1
35.9%

Kindly indicate its recorded inhibition. Item: COc1cc(NC(=O)c2ccc(-c3ccc(Cl)cc3)o2)cc(OC)c1
9.84%

Kindly indicate its recorded inhibition. Item: Cc1onc(O)c1CC(N)C(=O)O (stereo not drawn)
5.29%

Kindly indicate its recorded inhibition. Item: Nc1nc2cc(-c3cc(Cl)ccc3Oc3cc(F)c(S(=O)(=O)Nc4ncns4)cc3F)ccc2[nH]1
33.8%

Kindly indicate its recorded inhibition. Item: N#Cc1cc2c(OCC(O)CN3CCN(C(c4ccccc4)c4ccccc4)CC3)cccc2[nH]1 (racemic)
-7.45%

Kindly indicate its recorded inhibition. Item: CN1CCN2c3ccccc3Cc3ccccc3C2C1 (stereo not drawn)
1.8%

----------
# tested.on: UniProt Q96FI4
# condition: Compound Concentration 10.0 uM, Hit No
# Description: Inhibition of NEIL1 by quantifying inhibition of NEIL1-mediated cleavage and dissociation of quenched duplex DNA oligonucleotides, measured as fluorescence at 594 nm.
Please respond with reported inhibition for every item in the list.
Numbers only here, please. The scale is %.

Kindly indicate its recorded inhibition. Item: CNC(=O)c1cc(C(=O)N[C@H]2[C@@H]3COC[C@@H]32)cc2c1O[C@H](CF)[C@H]2c1ccccc1
-1.35

Kindly indicate its recorded inhibition. Item: CN(C)C(=O)C(CCN1CCC(O)(c2ccc(Cl)cc2)CC1)(c1ccccc1)c1ccccc1
7.8

Kindly indicate its recorded inhibition. Item: COc1cc(Br)c(S(=O)(=O)Nc2ccc(C(F)(F)F)c(O[C@@H]3CCN(C)C3)c2)cc1OC
-6.66

Kindly indicate its recorded inhibition. Item: CCOc1c2c(c(OCC)c3ncccc13)CN(c1ccc(CS(=O)(=O)NC(=O)Cc3ccccc3OC)cc1C)C2=O
2.17

Kindly indicate its recorded inhibition. Item: COc1ccc([C@@H]2Sc3ccccc3N(CCN(C)C)C(=O)[C@@H]2OC(C)=O)cc1
3.71

Kindly indicate its recorded inhibition. Item: CCC(=O)NCC[C@@H]1CCc2ccc3c(c21)CCO3
10.6

Kindly indicate its recorded inhibition. Item: O=C(Nc1cc(C(F)(F)F)cc(C(F)(F)F)c1)c1cc(Cl)ccc1O
1.2

Kindly indicate its recorded inhibition. Item: COc1cc(NC(=O)CCN2CCC(OC(=O)Nc3ccccc3-c3ccccc3)CC2)c(Cl)cc1CNC[C@H](O)c1ccc(O)c2[nH]c(=O)ccc12
-7.76

Kindly indicate its recorded inhibition. Item: CC(C)NCC(O)c1ccc(N)c(C#N)c1 (configuration not stated)
-4.21

Kindly indicate its recorded inhibition. Item: NCC(O)c1ccc(O)cc1 (configuration not stated)
3.71

Kindly indicate its recorded inhibition. Item: Cc1cc(OCCCS(C)(=O)=O)cc(C)c1-c1cccc(COc2ccc3c(c2)OC[C@H]3CC(=O)O)c1
-4.36

Kindly indicate its recorded inhibition. Item: O=C(Nc1ccccc1Br)N[C@@H]1CCN(c2ccc(C(F)(F)F)cn2)C1
-1.77

Kindly indicate its recorded inhibition. Item: CCCCCCCCCCCCCCCCOC[C@H](COP(=O)([O-])OCC[N+](C)(C)C)OC(C)=O
-4.5

Kindly indicate its recorded inhibition. Item: Cc1cc2c(-c3ccco3)cnc(N[C@H]3CCN(C)C[C@@H]3C(=O)NC3CCCCC3)c2[nH]c1=O
0.316

Kindly indicate its recorded inhibition. Item: O=C(NNS(=O)(=O)c1ccccc1)c1cc(-c2ccnnc2)ccc1F
-4.38

Kindly indicate its recorded inhibition. Item: CN1CCN(c2nc3cc(C(F)(F)F)ccc3n3cccc23)CC1
-1.92

Kindly indicate its recorded inhibition. Item: N[C@@]1(C(=O)O)CC[C@H]2[C@H](C(=O)O)[C@H]21
5.05

----------
# tested.on: Endonuclease III-like protein 1 (Homo sapiens) (UniProt P78549)
# Sequence (whole entry): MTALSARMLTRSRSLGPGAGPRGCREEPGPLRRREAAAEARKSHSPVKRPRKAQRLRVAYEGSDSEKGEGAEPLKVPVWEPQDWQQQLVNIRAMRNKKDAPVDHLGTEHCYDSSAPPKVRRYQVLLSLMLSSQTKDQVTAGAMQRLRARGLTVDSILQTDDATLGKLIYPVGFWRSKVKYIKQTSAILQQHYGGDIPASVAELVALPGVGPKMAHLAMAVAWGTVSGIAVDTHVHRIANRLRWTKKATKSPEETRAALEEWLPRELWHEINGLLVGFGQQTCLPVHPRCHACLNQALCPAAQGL
# condition: Compound Concentration 10.0 uM, Hit No
# Description: Inhibition of NTHL1 by quantifying inhibition of NTHL1-mediated cleavage and dissociation of quenched duplex DNA oligonucleotides, measured as fluorescence at 594 nm.
Please respond with reported inhibition for every item in the list.
Numbers only here, please. The scale is %.

Provide Endonuclease III-like protein 1 (Homo sapiens) (UniProt P78549) inhibition reading for COCCc1ccc(-c2c(C)nc3c(N4CCOCC4)ccnn23)cn1 .
-3.26

Provide Endonuclease III-like protein 1 (Homo sapiens) (UniProt P78549) inhibition reading for CN(C)[C@@H]1CCN(c2cc(-c3ccccc3)nc3ccnn23)C1 .
-6.55

Provide Endonuclease III-like protein 1 (Homo sapiens) (UniProt P78549) inhibition reading for Cc1cccc(NC(=O)CN2CCC(c3ccccn3)CC2)c1 .
12.1

Provide Endonuclease III-like protein 1 (Homo sapiens) (UniProt P78549) inhibition reading for CCOP(=O)(OCC)C(=Cc1cc(C(C)(C)C)c(O)c(C(C)(C)C)c1)P(=O)(OCC)OCC .
12.5

Provide Endonuclease III-like protein 1 (Homo sapiens) (UniProt P78549) inhibition reading for CC1=C(C(=O)Nc2cc3cn[nH]c3cc2F)C(c2ccc(C(F)(F)F)cc2)CC(=O)N1 (centres undefined) .
-2.7

Provide Endonuclease III-like protein 1 (Homo sapiens) (UniProt P78549) inhibition reading for O=C(Nc1cc(-c2ccccc2)nn1-c1ccccc1F)c1ccc([N+](=O)[O-])cc1 .
24.5

Provide Endonuclease III-like protein 1 (Homo sapiens) (UniProt P78549) inhibition reading for CC(C)(O)[C@H](F)CN1Cc2cc(NC(=O)c3cnn4cccnc34)c(N3CCOCC3)cc2C1=O .
0.755

Provide Endonuclease III-like protein 1 (Homo sapiens) (UniProt P78549) inhibition reading for CN(CCOc1ccc(C[C@H](Nc2ccccc2C(=O)c2ccccc2)C(=O)O)cc1)c1ccccn1 .
-4.57

Provide Endonuclease III-like protein 1 (Homo sapiens) (UniProt P78549) inhibition reading for Cc1ccc(S(=O)(=O)Nc2ccc(-n3nc(C(F)(F)F)cc3C(F)(F)F)cc2)cc1 .
16.2

----------
# tested.on: Adenine DNA glycosylase (Homo sapiens)
# condition: Compound Concentration 10.0 uM, Hit No
# Description: Inhibition of MUTYH by quantifying inhibition of MUTYH-mediated cleavage and dissociation of quenched duplex DNA oligonucleotides, measured as fluorescence at 594 nm. To generate a functional strand incision and increase turn-over this assay is coupled to APE1.
measurement.type: inhibition (%)
Numbers only here, please. The scale is %.

Kindly indicate its recorded inhibition. Item: c1ccc(Cn2c(N3CCNCC3)nc3ccccc32)cc1
0.413

Kindly indicate its recorded inhibition. Item: O=C(NCc1ccccc1)c1ccc(S(=O)(=O)NCc2ccccc2)cc1
27.8

Kindly indicate its recorded inhibition. Item: CC(=O)Nc1c(F)cc(C(=O)N[C@H]2CC[C@H](O)CC2)cc1O[C@@H](C)c1ccccc1
6.45

----------
# tested.on: Endonuclease 8-like 1 (Homo sapiens) (UniProt Q96FI4)
# Sequence (Q96FI4 whole entry): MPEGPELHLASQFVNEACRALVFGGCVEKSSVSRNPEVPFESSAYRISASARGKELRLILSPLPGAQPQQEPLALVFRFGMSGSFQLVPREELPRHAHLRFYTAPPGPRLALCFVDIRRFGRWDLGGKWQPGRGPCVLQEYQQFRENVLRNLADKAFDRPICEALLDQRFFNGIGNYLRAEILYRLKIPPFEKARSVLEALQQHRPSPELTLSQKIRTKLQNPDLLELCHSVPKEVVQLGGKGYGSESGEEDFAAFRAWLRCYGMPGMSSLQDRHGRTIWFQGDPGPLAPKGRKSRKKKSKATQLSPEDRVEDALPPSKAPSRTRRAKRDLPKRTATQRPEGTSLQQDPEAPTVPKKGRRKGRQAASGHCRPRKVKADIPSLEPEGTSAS
# condition: Compound Concentration 10.0 uM, Hit No
Please respond with reported inhibition for every item in the list.
Numbers only here, please. The scale is %.

Kindly indicate its recorded inhibition. Item: O=c1[nH]c2ccccc2n1CCCN1CCN(C(c2ccccc2)c2ccccc2)CC1
-7.26

Kindly indicate its recorded inhibition. Item: Cc1ccccc1-c1cc(N2CCN(C)CC2)ncc1N(C)C(=O)C(C)(C)c1cc(C(F)(F)F)cc(C(F)(F)F)c1
0.537

Kindly indicate its recorded inhibition. Item: CC[C@H]1CN(c2nc(N)c(C(N)=O)nc2Cl)CCN1C1CCN(Cc2ccc(Cl)cc2)CC1
5.05

Kindly indicate its recorded inhibition. Item: Cc1cn([C@H](C)CC#N)c(=O)c2cc(Cn3nc(C(F)F)cc3Cl)nn12
-8.77

Kindly indicate its recorded inhibition. Item: C[C@H]1[C@H]2CC[C@H]3[C@@H]4CC=C5C[C@@H](N(C)C)CC[C@]5(C)[C@H]4CC[C@]23CN1C
-0.649

----------
Please respond with reported inhibition for every item in the list.
# tested.on: Endonuclease 8-like 2 (Homo sapiens)
# condition: Compound Concentration 10.0 uM, Hit No
# Description: Inhibition of NEIL2 by quantifying inhibition of NEIL2-mediated cleavage and dissociation of quenched duplex DNA oligonucleotides, measured as fluorescence at 594 nm.
Numbers only here, please. The scale is %.

Kindly indicate its recorded inhibition. Item: CC(C)C[C@H](NC(=O)N1CCCCCC1)C(=O)N[C@H](Cc1cn(C)c2ccccc12)C(=O)N[C@H](Cc1ccccn1)C(=O)O
6

Kindly indicate its recorded inhibition. Item: NS(=O)(=O)c1cncc(-c2nc(NCc3ccccn3)c3c(-c4ccccc4)cccc3n2)c1
-1.88

Kindly indicate its recorded inhibition. Item: CC(C)(C#Cc1ccc(NC(=O)COc2ccccc2C(=O)c2ccccc2)c(Cl)c1)C(=O)O
15.6

Kindly indicate its recorded inhibition. Item: O=C(Nc1ccc(Cl)cc1)N[C@@H](Cc1ccccc1)C(=O)N1CCCCC1
-3.15

Kindly indicate its recorded inhibition. Item: N=C(N)NCCSC(=N)N
-9.52

Kindly indicate its recorded inhibition. Item: CCC(C)(C)/N=C(\NC#N)Nc1cccnc1
-1.62

Kindly indicate its recorded inhibition. Item: CN(C)C(=O)N[C@H]1CC[C@H](CCN2CCN(c3cccc(Cl)c3Cl)CC2)CC1
10.2

Kindly indicate its recorded inhibition. Item: O=C(NCc1cccnc1OCC(F)(F)F)c1cncc(-c2ccc(Cl)cc2)c1
-0.35

Kindly indicate its recorded inhibition. Item: CCCC(=O)C1CCN(c2ncnc3c2CN(C(=O)c2ccc(-c4ccccc4)cc2)CC3)CC1
-0.605

Kindly indicate its recorded inhibition. Item: Cc1ccccc1Oc1cc(-n2c(=O)cc(C(F)(F)F)[nH]c2=O)c2ccccc2c1Cl
-1.25

Kindly indicate its recorded inhibition. Item: NC(=O)c1cc(-c2ccc(S(=O)(=O)[C@H]3CC[C@H](Nc4ccc(C(F)(F)F)cn4)CC3)cc2)ccn1
9.33

Kindly indicate its recorded inhibition. Item: CN1CCc2cc(Cl)c(O)cc2[C@@H](c2ccccc2)C1
3.22

Kindly indicate its recorded inhibition. Item: C[C@@H]1CN(c2cc(-c3nn(C)c4ccc(OC5(C)CC5)cc34)ncn2)C[C@H](C)O1
1.04

Kindly indicate its recorded inhibition. Item: CCC[C@H]1CNCc2c1[nH]c(=O)c(C#N)c2N1CCC2(CC1)CC2
-0.999

Kindly indicate its recorded inhibition. Item: CN(C)C(=O)c1cc2cnc(Nc3ccc(N4CCNCC4)cn3)nc2n1C1CCCC1
-0.842

Kindly indicate its recorded inhibition. Item: C=CC(=O)Nc1ccc2[nH]c(=O)n(C3CCN(Cc4ccc(-c5nc6cc[nH]c(=O)c6cc5-c5ccccc5)cc4)CC3)c2c1
4.67

Kindly indicate its recorded inhibition. Item: CNc1nc(-c2ccc3c(N)n[nH]c3c2)cc(N2C[C@@H](C(=O)NC3CCCCC3)CC[C@H]2C)n1
-5.15

Kindly indicate its recorded inhibition. Item: O=C(NCC(=O)N1CC[C@H](N[C@H]2CC[C@@](O)(c3ccc(-c4ncccn4)cn3)CC2)C1)c1cccc(C(F)(F)F)c1
6.25

Kindly indicate its recorded inhibition. Item: Cc1ccnc(Nc2nc(-c3ccccn3)cs2)c1
9.84

Kindly indicate its recorded inhibition. Item: COCCn1c(C)c(C)s/c1=N\C(=O)C1C(C)(C)C1(C)C
1.51

Kindly indicate its recorded inhibition. Item: CCn1cnc2c(-c3ccc(F)c(-c4ccc(S(=O)(=O)CC)cc4OC)c3)cnnc21
12.9

Kindly indicate its recorded inhibition. Item: CC(C)C(=O)N1CCC(c2cn(C)c3ncc(NC(=O)c4cccc(C#N)c4)c(C(F)(F)F)c23)CC1
-3.04

Kindly indicate its recorded inhibition. Item: Cc1nc(C#Cc2ccnc(Cl)c2)c(C)n1-c1ccc(OC(F)(F)F)cc1
5.26

Kindly indicate its recorded inhibition. Item: CCCN1CCO[C@H]2c3cc(O)ccc3OC[C@@H]21
-7.97

Kindly indicate its recorded inhibition. Item: CC1(C)[C@H]2C[C@H](C/C=C\CCCC(=O)O)[C@@H](NC(=O)c3csc4ccc(O)cc34)[C@@H]1C2
3.51

Kindly indicate its recorded inhibition. Item: CSc1cc2c(cc1C(F)(F)F)N(C(=O)Nc1cccnc1)CC2
16.2

Kindly indicate its recorded inhibition. Item: O=C(N[C@H](Cc1ccc(Cl)cc1)C(=O)N1CCC(Cn2cncn2)(C2CCCCC2)CC1)[C@H]1Cc2ccccc2CN1
0.159

Kindly indicate its recorded inhibition. Item: Cc1nnc2n1-c1sc(CCC(=O)N3CCOCC3)cc1C(c1ccccc1Cl)=NC2
7.25

Kindly indicate its recorded inhibition. Item: Clc1ccc(CCCOCCCN2CCCCC2)cc1
-5.97
